# assayed_system: AMP-activated protein kinase (AMPK) alpha-1/beta-1/gamma-1 (Homo sapiens, UniProt P54619+Q13131+Q9Y478)
# Sequence (P54619 whole entry): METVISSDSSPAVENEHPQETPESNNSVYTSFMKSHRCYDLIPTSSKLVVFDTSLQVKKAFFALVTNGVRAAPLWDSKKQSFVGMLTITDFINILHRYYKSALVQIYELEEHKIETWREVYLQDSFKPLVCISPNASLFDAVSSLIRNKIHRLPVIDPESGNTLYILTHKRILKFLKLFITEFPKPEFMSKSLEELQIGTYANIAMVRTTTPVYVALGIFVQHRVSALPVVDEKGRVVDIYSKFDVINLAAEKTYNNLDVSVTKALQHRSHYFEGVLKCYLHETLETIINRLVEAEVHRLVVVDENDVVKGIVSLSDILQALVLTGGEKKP
# Sequence (Q9Y478 whole entry): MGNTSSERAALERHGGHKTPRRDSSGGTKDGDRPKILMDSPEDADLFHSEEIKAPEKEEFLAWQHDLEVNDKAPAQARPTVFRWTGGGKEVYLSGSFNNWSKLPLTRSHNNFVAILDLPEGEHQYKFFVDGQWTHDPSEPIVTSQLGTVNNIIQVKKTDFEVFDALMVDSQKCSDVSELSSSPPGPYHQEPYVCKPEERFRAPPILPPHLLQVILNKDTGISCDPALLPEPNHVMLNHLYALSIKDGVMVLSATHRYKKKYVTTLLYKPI
# Sequence (Q13131 whole entry): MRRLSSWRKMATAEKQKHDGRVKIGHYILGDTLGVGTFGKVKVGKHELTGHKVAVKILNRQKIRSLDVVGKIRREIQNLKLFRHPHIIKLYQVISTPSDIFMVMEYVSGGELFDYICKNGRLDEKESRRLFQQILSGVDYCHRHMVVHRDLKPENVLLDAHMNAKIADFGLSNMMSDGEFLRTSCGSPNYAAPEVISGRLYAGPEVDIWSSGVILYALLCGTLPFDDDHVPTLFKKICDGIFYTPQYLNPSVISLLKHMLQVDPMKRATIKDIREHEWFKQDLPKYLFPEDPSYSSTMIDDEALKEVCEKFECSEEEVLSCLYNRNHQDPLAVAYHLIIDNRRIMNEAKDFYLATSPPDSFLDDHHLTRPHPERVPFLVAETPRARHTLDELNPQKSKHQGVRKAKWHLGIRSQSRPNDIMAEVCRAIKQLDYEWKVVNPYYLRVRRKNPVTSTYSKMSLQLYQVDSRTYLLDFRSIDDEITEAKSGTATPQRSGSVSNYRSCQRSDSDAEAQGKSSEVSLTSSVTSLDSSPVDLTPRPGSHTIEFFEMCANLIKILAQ
# assay: Inhibition of AMPKalpha1/beta1/gamma1 (unknown origin) by ADP-Glo Kinase assay
experimental_endpoint: IC50 (µM)

> print(dat)
                           substance.smiles  measurement.unit  observed
1  COc1cc(Nc2nccc(N3CCCn4nc(C#C[C@@](C)(O)c5nccs5)cc43)n2)cc(OC)c1                µM       288

* * *

# assay: AUCinf in C57BL/6J mouse at 10 mg/kg, po measured upto 24 hrs by LC-MS/MS analysis
# Type: ADME, organism-based
# measurement_parameters: in vivo
experimental_endpoint: AUC(0-inf) (ng·h/mL)

> print(dat)
                           substance.smiles  experimental.endpoint  measurement.unit  observed
1  COc1cc(Nc2nccc(N3CCCn4nc(C#C[C@@](C)(O)c5nccs5)cc43)n2)cc(OC)c1             AUC(0-inf)           ng·h/mL      2550

* * *

# assay: AUCinf in C57BL/6J mouse at 10 mg/kg, iv measured upto 24 hrs by LC-MS/MS analysis
# Format: ADME, organism-based
# measurement_parameters: in vivo
experimental_endpoint: AUC(0-inf)

> print(dat)
                           substance.smiles      observed
1  COc1cc(Nc2nccc(N3CCCn4nc(C#C[C@@](C)(O)c5nccs5)cc43)n2)cc(OC)c1  3020 ng·h/mL

* * *

# assay: Metabolic stability in rat liver microsomes assessed as intrinsic clearance at 1 uM measured upto 60 mins by LC-MS/MS analysis
# Format: ADME, Microsome
# measurement_parameters: read-out: CLH
experimental_endpoint: microsomal CLint at 1 µM

> print(dat)
                           substance.smiles     experimental.endpoint        observed
1  COc1cc(Nc2nccc(N3CCCn4nc(C#C[C@@](C)(O)c5nccs5)cc43)n2)cc(OC)c1  microsomal CLint at 1 µM  53.6 µL/min/mg

* * *

# assayed_system: Mitogen-activated protein kinase kinase kinase 14 (Homo sapiens, UniProt Q99558)
# Sequence (Q99558 whole entry): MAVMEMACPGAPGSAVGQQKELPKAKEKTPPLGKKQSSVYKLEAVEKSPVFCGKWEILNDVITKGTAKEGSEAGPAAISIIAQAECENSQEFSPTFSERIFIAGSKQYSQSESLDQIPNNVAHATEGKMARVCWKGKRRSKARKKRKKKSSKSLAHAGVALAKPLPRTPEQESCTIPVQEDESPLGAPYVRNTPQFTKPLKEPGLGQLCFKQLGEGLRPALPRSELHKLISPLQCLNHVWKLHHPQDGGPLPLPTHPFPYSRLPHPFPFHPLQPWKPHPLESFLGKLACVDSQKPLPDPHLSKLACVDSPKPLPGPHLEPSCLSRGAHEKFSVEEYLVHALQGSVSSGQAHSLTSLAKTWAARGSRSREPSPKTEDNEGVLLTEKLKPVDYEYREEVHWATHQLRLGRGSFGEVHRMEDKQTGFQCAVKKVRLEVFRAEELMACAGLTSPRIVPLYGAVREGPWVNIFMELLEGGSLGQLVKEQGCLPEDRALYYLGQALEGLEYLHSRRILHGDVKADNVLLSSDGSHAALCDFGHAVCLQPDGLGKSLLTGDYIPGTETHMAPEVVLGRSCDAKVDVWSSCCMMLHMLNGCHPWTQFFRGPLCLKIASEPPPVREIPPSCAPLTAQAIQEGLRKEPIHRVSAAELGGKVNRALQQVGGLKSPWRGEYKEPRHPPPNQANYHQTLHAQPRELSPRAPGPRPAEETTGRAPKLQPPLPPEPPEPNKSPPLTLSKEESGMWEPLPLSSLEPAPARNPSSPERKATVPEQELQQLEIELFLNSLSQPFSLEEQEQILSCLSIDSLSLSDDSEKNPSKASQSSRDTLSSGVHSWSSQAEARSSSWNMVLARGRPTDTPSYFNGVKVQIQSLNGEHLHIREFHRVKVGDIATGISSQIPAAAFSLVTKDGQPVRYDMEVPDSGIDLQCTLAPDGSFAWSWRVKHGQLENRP
# assay: Inhibition of NIK (unknown origin) expressed in COS-7 cells co-expressing NF-KappaB luciferase reporter assessed as suppression of luciferase reporter measured after 24 by beta-Gal activity assay
# Format: cell-based
IC50 listing for selected molecules.
experimental_endpoint: IC50

> print(dat)
                                   molecule  observed
1  CC(O)(C#Cc1cc2n(n1)CCCN2c1ccnc(Nc2cccc(N3CCOCC3)n2)n1)c1nccs1 (centres undefined)   2430 nM
2  CC(O)(C#Cc1cc2n(n1)CCCN2c1ccnc(Nc2ccccc2)n1)c1nccs1 (centres undefined)   2170 nM
3  COc1cccc(Nc2nccc(N3CCCn4nc(C#CC(C)(O)c5nccs5)cc43)n2)c1 (centres undefined)   1330 nM
4  CC(O)(C#Cc1ccc2c(c1)N(c1nc(N)ncc1Cl)CC2)c1nccs1 (centres undefined)    910 nM
5  CC(O)(C#Cc1cc2n(n1)CCCN2c1ccnc(Nc2ccc3c(c2)OCO3)n1)c1nccs1 (centres undefined)   1410 nM
6  CN(C)c1cccc(Nc2nccc(N3CCCn4nc(C#CC(C)(O)c5nccs5)cc43)n2)c1 (centres undefined)   2230 nM
7  COc1cc(Nc2nccc(N3CCCn4nc(C#C[C@@](C)(O)c5nccs5)cc43)n2)cc(OC)c1   1190 nM
8  CC(O)(C#Cc1cc2n(n1)CCCN2c1ccnc(NC23CC(C2)C3)n1)c1nccs1 (centres undefined)   1510 nM
9  CC(O)(C#Cc1cc2n(n1)CCCN2c1ccnc(Nc2cccc(C#N)c2)n1)c1nccs1 (centres undefined)   3560 nM
